All values here come from patent US9085555B2.

For each of the compounds below, state its IC50.
# system.name: Factor D (Homo sapiens (Human), UniProt P00746)
# Sequence (P00746 26-253): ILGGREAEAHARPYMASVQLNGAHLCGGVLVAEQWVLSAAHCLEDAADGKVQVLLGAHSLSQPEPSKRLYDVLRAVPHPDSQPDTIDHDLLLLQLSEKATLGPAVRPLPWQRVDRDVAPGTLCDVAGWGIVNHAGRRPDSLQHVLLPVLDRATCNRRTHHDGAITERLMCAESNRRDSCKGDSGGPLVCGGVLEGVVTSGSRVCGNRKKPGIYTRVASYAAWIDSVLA
# experiment.summary: biochemical
# Format: biochemical
# stated.conditions: read-out: IC50
Please give a number only; it is taken to be in nM.

Exam item: # input compound: NC(=O)n1cc(CC(=O)N2CCC[C@H]2C(=O)Nc2cccc(OC(F)(F)F)c2)c2ccccc21 ; wanted: its IC50
Marked response: 5620

Exam item: # input compound: NC(=O)c1cc(NC(=O)N2CCC[C@H]2C(=O)Nc2cccc(OC(F)(F)F)c2)n2ccccc12 ; wanted: its IC50
Marked response: 2930

Exam item: # input compound: NC(=O)c1nn(CC(=O)N2[C@@H]3C[C@@H]3C[C@H]2C(=O)Nc2cccc(OC(F)F)c2F)c2cnccc12 ; wanted: its IC50
Marked response: 143

Exam item: # input compound: CC(=O)c1cn(CC(=O)N2[C@H](C(=O)NCc3cccc(Cl)c3F)C[C@@]3(CO)C[C@@H]23)c2ccccc12 ; wanted: its IC50
Marked response: 141
